- measurement_target: T1, HLA-A*0301 (human)
- T1 construct: also called HLA-A3
- assay_method_text: competitive inhibition of 125I-labelled standard peptide binding to purified HLA-A*0301, gel filtration; standard 941.12 [..] (11 nM)
Consider the following binders and their measured relative binding ratio (IC50 of standard peptide / IC50 of test peptide) readings.
Put your answer as a value accompanied by its unit after it.

Recorded relative binding ratio (IC50 of standard peptide / IC50 of test peptide), per entry:
Noted for ILWKDIFHK (Synthetic peptide; also called Her2/neu.167) [HER2/neu peptide, position 167, 9 amino acids] : its relative binding ratio (IC50 of standard peptide / IC50 of test peptide) reads 0.28 ratio

Noted for KIPVAIKVLR (Synthetic peptide) [HER2/neu peptide, position 747, 10 amino acids] : its relative binding ratio (IC50 of standard peptide / IC50 of test peptide) reads 0.0009 ratio

Noted for HTVPWDQLFR (Synthetic peptide; also called Her2/neu.478) [HER2/neu peptide, position 478, 10 amino acids] : its relative binding ratio (IC50 of standard peptide / IC50 of test peptide) reads 0.0035 ratio

Consider the record given below.
Noted for HLDMLRHLY (Synthetic peptide; also called Her2/neu.42) [HER2/neu peptide, position 42, 9 amino acids] : its relative binding ratio (IC50 of standard peptide / IC50 of test peptide) reads 0.037 ratio
